Values were extracted from ChEMBL document CHEMBL1240469.

test system: Serum; assay: Drug level in SCID mouse serum at 10 mg/kg, ip by GC-MS analysis; format: ADME, organism-based; parameters: dose 10 mg/kg, route intraperitoneal; settings: in vivo
READOUT_LABEL: Drug uptake (ng/mL)
State just the number; it will be interpreted in ng/mL.

// returns Drug uptake for COc1cc(/C=C/c2ccc(N)cc2)cc(OC)c1 with Serum; value = 99

Value sought: Drug uptake, system Serum, item COC(=O)c1ccc(/C=C/c2cc(OC)cc(OC)c2)cc1 . Result: 54.6

The reported Serum Drug uptake of COc1ccc(/C=C\c2cc(OC)cc(OC)c2)cc1 is 15.5

Field Drug uptake (Serum), entry COc1cc(/C=C\c2ccc(N)cc2)cc(OC)c1 : 109.1

// compound COc1ccc(/C=C/c2cc(OC)cc(OC)c2)cc1 , assay Serum, Drug uptake value: 69.9

The value of Drug uptake recorded for COC(=O)c1ccc(/C=C\c2cc(OC)cc(OC)c2)cc1 when tested on Serum reads 18.8

---

test system: HT-29; experiment: Cytotoxicity against human HT-29 cells after 3 days by [3H]thymidine incorporation assay; format: functional, cell-based
Please provide measured pIC50 for the entries that follow.
Scale: pIC50 equals -log10([C]), with [C] in mol/L.

Looking up COc1cc(/C=C/c2ccc(O)cc2)cc(OC)c1 , I see its pIC50 listed as 4.62

Per the record, COc1cc(O)cc(/C=C/c2ccc(O)cc2)c1 has pIC50 of 4.47

pIC50 reported for this compound COc1ccc(/C=C/c2cc(OC)cc(OC)c2)cc1 : 4.79

pIC50 reported for this compound COc1ccc(/C=C\c2cc(OC)cc(OC)c2)cc1 : 7.40

Reported pIC50 of COc1ccc(/C=C/c2cc(O)cc(O)c2)cc1 : 4.61

---

Answer each item with its documented pIC50.
tested on: HT-29; test: Cytotoxicity against human HT-29 cells after 3 days by [3H]thymidine incorporation assay; type: functional, cell-based
pIC50: −log10 of the molar value.

Lab note: measured pIC50 of COc1ccc(/C=C\c2cc(O)cc(O)c2)cc1 was < 4.52

// sample COc1cc(/C=C/c2ccc(OC3OC(CO)C(O)C(O)C3O)cc2)cc(OC)c1 (stereo not given) , its pIC50 was < 5.00

Reported pIC50 of COc1cc(/C=C/c2ccc(S)cc2)cc(OC)c1 : < 5.00

So for COc1cc(/C=C\c2ccc(F)cc2)cc(OC)c1 , the logged pIC50 turned out to be < 5.00

pIC50 recorded for this compound, COc1cc(/C=C/c2ccc(F)cc2)cc(OC)c1 , is < 5.00
